Consider the following molecules and their measured pIC50 readings.
System: HT-29
methodSummary: Cytotoxicity of compound was evaluated on the HT-29 cell line
Assay type: functional, cell-based
studyConditions: Homo sapiens
pIC50: −log10 of the molar value.

| inputSmiles | pIC50 |
| --- | --- |
| CN(C)CCn1c2ccccc2c2c(C#N)nc3ccccc3c21 | 6.17 |
| N#Cc1nc2ccccc2c2nc3ccccc3n12 | 5.28 |
